EXPERIMENTAL SYSTEM: PSMA (Prostate-Specific Membrane Antigen), glutamate carboxypeptidase 2 (UniProt Q04609 1-750)
ASSAY DETAILS: FACS; C4-2 XCL cells
READOUT: EC50 (nM)

BINDER	MEASURED VALUE
IAB2M γ1 EH1 (other) DIVMTQSPSSLSASVGDRVTITCKASQDVGTAVDWYQQKPGKAPKLLIYWASTRHTGVPDRFTGSGSGTDFTLTISSLQPEDFADYFCQQYNSYPLTFGGGTKLEIKGSTSGGGSGGGSGGGGSSEVQLVQSGAEVKKPGASVKISCKTSGYTFTEYTIHWVKQASGKGLEWIGNINPNNGGTTYNQKFEDRATLTVDKSTSTAYMELSSLRSEDTAVYYCAAGWNFDYWGQGTTVTVSSEPKSCDKTHTCPPCGGGSSGGGSGGQPREPQVYTLPPSRDELTKNQVSLTCLVKGFYPSDIAVEWESNGQPENNYKTTPPVLDSDGSFFLYSKLTVDKSRWQQGNVFSCSVMHEALHNHYTQKSLSLSPGK	0.4
IAB2M γ2 EH1 (other) DIVMTQSPSSLSASVGDRVTITCKASQDVGTAVDWYQQKPGKAPKLLIYWASTRHTGVPDRFTGSGSGTDFTLTISSLQPEDFADYFCQQYNSYPLTFGGGTKLEIKGSTSGGGSGGGSGGGGSSEVQLVQSGAEVKKPGASVKISCKTSGYTFTEYTIHWVKQASGKGLEWIGNINPNNGGTTYNQKFEDRATLTVDKSTSTAYMELSSLRSEDTAVYYCAAGWNFDYWGQGTTVTVSSERKCCVECPPCPGGGSSGGGSGGQPREPQVYTLPPSREEMTKNQVSLTCLVKGFYPSDIAVEWESNGQPENNYKTTPPMLDSDGSFFLYSKLTVDKSRWQQGNVFSCSVMHEALHNHYTQKSLSLSPGK	0.27
IAB2M γ1 EH3 (other) DIVMTQSPSSLSASVGDRVTITCKASQDVGTAVDWYQQKPGKAPKLLIYWASTRHTGVPDRFTGSGSGTDFTLTISSLQPEDFADYFCQQYNSYPLTFGGGTKLEIKGSTSGGGSGGGSGGGGSSEVQLVQSGAEVKKPGASVKISCKTSGYTFTEYTIHWVKQASGKGLEWIGNINPNNGGTTYNQKFEDRATLTVDKSTSTAYMELSSLRSEDTAVYYCAAGWNFDYWGQGTTVTVSSEPKSSDKTHTCPPCPPCGGGSSGGGSGGQPREPQVYTLPPSRDELTKNQVSLTCLVKGFYPSDIAVEWESNGQPENNYKTTPPVLDSDGSFFLYSKLTVDKSRWQQGNVFSCSVMHEALHNHYTQKSLSLSPGK	0.38
